Test system: MS2 coat protein
Test: apparent KD of MS2 coat protein; designed switch direction (-1 OFF switch, 1 ON switch): 1; higher = weaker reporter binding
Settings: input ligand: FMN 200 uM
In this section, each of the sequences is paired with its reported apparent KD of MS2 coat protein.
Please append the unit to your numeric answer.

{"columns": ["Record Sequence", "Measured On", "apparent KD of MS2 coat protein"],
 "data": [
  ["CUGAGCGAUCUAGGAUAUCACGUCGAAUAGACGUGAGAAGGAGAUCAUAACAUGAGGAUCACCCAUGUAUUACAUGAAGCUCAG [SSNG1/6-A1] (Eterna round: R96, puzzle: Same State NG 1)", "MS2 coat protein", "0.0132 µM"],
  ["GCGAGCGUACUUGCAGACAUGAGGAUCACCCAUGUAACUGGACAGGAUAUGGUACCGUUUCGGUACCAGAAGGGUUUACAUGUU [JL SSNG3 3.51] (Eterna round: R96, puzzle: Same State NG 3)", "MS2 coat protein", "0.0202 µM"],
  ["UGUUGUAUUACAGGAUAUCUAUUGUUUUCAUUUAGAGAAGGGUAUUCACAUGAGGAUCACCCAUGUAUAUACGAGGAAGUUGUG [JMF's solution 78] (Eterna round: R96, puzzle: Same State NG 1)", "MS2 coat protein", "0.0421 µM"]
]}

Reported apparent KD of MS2 coat protein ( GUUACAUGAGGAUCACCCAUGUAUGUGUGGGAGUAAGUGUCUUAGGAUAUCUAUAAUUUAAAUUAAGAGAAGGAAGAUUGUUGU [JMF's solution 10] (Eterna round: R96, puzzle: Same State NG 3) ) = 0.121 µM

Reported apparent KD of MS2 coat protein ( GGUAGGUUACUACCAAUACAUGAGGAUCACCCAUGUUAUCAUGAGGAUAUGGUACCUAUUUGGUACCAGAAGGCAUGUAUAAUU [Fiskers NG3ss - 19] (Eterna round: R96, puzzle: Same State NG 3) ) = 0.0436 µM

----------
System: MS2 coat protein
Assay: apparent KD of MS2 coat protein; designed switch direction (-1 OFF switch, 1 ON switch): -1; higher = weaker reporter binding
Conditions: input ligand: microRNA oligo, concentration not stated
Please enter Y where apparent KD of MS2 coat protein is greater than or equal to 30 nM, and N where it is lower.

{"columns": ["Record Sequence", "Answer Label"],
 "data": [
  ["AUUAUAUAGUAAGGAUAUAGAUUAUUAUUUUAACAUGAGGAUCACCCAUGUAGCCUUAUGUAUAACUAGAAGGUACAUUUAUUA [Title] (Eterna round: R96, puzzle: Exclusion NG 2)", "Y"],
  ["AAUAUACAUGUAGGAUAUCUGCACGUGUAGUGCAGAGAAGGACAUGAGGAUCACCCAUGUAAUUAAGAUCAAUUAUUAAAUAUU [ENG1/3-B3] (Eterna round: R96, puzzle: Exclusion NG 1)", "Y"],
  ["AAGGGUACUUUCAGAACGACAUGAGGAUCACCCAUGUAGACUGAGGAUAUCUACUUCUAAGGACGGGAGAAGGCAGUGUAAUGU [Ex NG3 #72] (Eterna round: R96, puzzle: Exclusion NG 3)", "N"],
  ["ACAUGAGGAUCACCCAUGUGAAAACAAUGGCUGACUAAGAGAUAGGAUAUAUGUGCAUAUCAAACAUAGAAGGGUCAUUACUGG [Deportation 88 - Jieux - Exclusion NG 3] (Eterna round: R96, puzzle: Exclusion NG 3)", "N"]
]}

We now examine a further sequence.
Does apparent KD of MS2 coat protein meet or surpass 30 nM for CUAAAUCAUGUAGGAUAUGCGUGGCGAAGCUAUGCAGAAGGACAUGAGGAUCACCCAUGUGCUUCCGUCUGCGUACAGACGGAA [JL ENG1 1.17] (Eterna round: R96, puzzle: Exclusion NG 1) ? Y

----------
Tested on: K4 kissing-loop RNA reporter
Test: apparent KD of K4 kissing-loop reporter; higher = weaker reporter binding
Conditions: Eterna round: R107; input ligand: tryptophan 2.4 mM
Measurement Label: apparent KD of K4 kissing-loop reporter (µM)
Just the number in µM, nothing appended.

{"columns": ["Record Sequence", "Uom", "apparent KD of K4 kissing-loop reporter"],
 "data": [
  ["UGUACCGAGUCAGGAUAUGUCGUCGAAAGACGAAAUGGAGUGAUGUUCCUUAAACUGCGAAAGCAGACAGAAGGGACUUGGUACU [FmnBS 29 #SwitchBubble #StaticStem #DoubleMagnetSystem]", "µM", 0.275],
  ["GCGGGCCAGACGGCCGCCACUCCGGGCAGUGAUGUUGCGAAACUUCUACUAGAGUGAUGUUCUACGAGGACCGGGUCGGAACGCG [Exclusion Tryptophan B Gf 13]", "µM", 0.578]
]}

Reported apparent KD of K4 kissing-loop reporter ( ACGAAAUGCGACUCCUAGUUACACCGGGAAGGAGCGCGGAUAACCGCAGGUAGGUCGCCCGGAAGCCGGACCAGUGAUGUUGGUC [Exclusion Arginine A Gf 27] ) = 0.217

----------
In this section, each of the sequences is paired with its reported apparent KD of MS2 coat protein.
System: MS2 coat protein
Test: apparent KD of MS2 coat protein; designed switch direction (-1 OFF switch, 1 ON switch): -1; higher = weaker reporter binding
Conditions: Eterna round: R95; input ligand: none
Just the number in µM, nothing appended.

{"columns": ["Record Sequence", "apparent KD of MS2 coat protein / µM"],
 "data": [
  ["CGUACUGAAGUCAGGAUAUUGUCUCGGAUACGAAACAAGAAGGGACAUGAGGAUCACCCAUGUGGACAGUACGA [Malc #30 mod 6] (puzzle: Brourd's mod of Exclusion 4)", 0.0367],
  ["AAAGAACAUGAGGAUCACCCAUGUGAGGAUAUGUAAGGAUAGGACCGAAGAAGCGAGAACAGAAGGCACAGAGG [JR_Exclu1_Sub069] (puzzle: Exclusion 1)", 0.0186]
]}

Attention now turns to another entry.
Reported apparent KD of MS2 coat protein ( GACUGAAUUUUGUUUGGUUACAUGAGGAUCACCCAUGUUGGUCUAAGAACAUGUCUUUUGUACGCUUGUCUUAUAUA [JR_SV3TOV1_Sub069] (puzzle: Sensor v3, turn-off variant 1) ) = 0.1

----------
Tested on: K4 kissing-loop RNA reporter
Test: apparent KD of K4 kissing-loop reporter; higher = weaker reporter binding
Details: Eterna round: R107; input ligand: arginine 13.2 mM
In this section, each of the sequences is paired with its reported apparent KD of K4 kissing-loop reporter.

{"columns": ["Record Sequence", "Measured On", "apparent KD of K4 kissing-loop reporter"],
 "data": [
  ["UCUGUUGUAUAUGAUACCAGCAGUGAGAGACGAGAAGUAUAGUGAUGUUAUAUGAGAGAAUGCCCUUGGCAGCGUGUGCGUGUGG [SSTheophylB.aB]", "K4 kissing-loop RNA reporter", "110 nM"],
  ["UCCUAGGACUUCAGGCGAAAGCCCUGCGAAGGAGCGUGCGAAAGCACAGGUAGGUCGCGCAGUGAUGUUGCACCUAGGUAAUAAA [#SwitchBubble 20 #K4Late]", "K4 kissing-loop RNA reporter", "656 nM"]
]}

Per the reported K4 kissing-loop RNA reporter data, AUUUAAUUAACUGAUACCAGACUUUUUGUUUUGAUAAUUACUAGUGAUGUUAGUGUUUCUGUCCCUUGGCAGCAGAAUCUACUUA [JR_ExcTheophyB_Sub018] has apparent KD of K4 kissing-loop reporter of 280 nM

Per the reported K4 kissing-loop RNA reporter data, UAUAAUUCGGCGGCCGCCACUGACCAUAGCCUUCGAUGGCCAGUGAUGUUGGCCUCUGGCUCUAACAGGACCGGGCCGAAUUGUG [Reresoza] has apparent KD of K4 kissing-loop reporter of 164 nM

Per the reported K4 kissing-loop RNA reporter data, AUAGGCUAGCGAAACGCUAGCCUAACAGAUACCAGUCGCGAAAGCGACCCUUGGCAGCUGCUGAGUGAUGUUCAGGUGAAUGAAU has apparent KD of K4 kissing-loop reporter of 285 nM

Per the reported K4 kissing-loop RNA reporter data, GGGAAGGGACACAAGGAGGAACGAAGGGAAGGAGCGCCGGAGGAGGCAGGUAGGUCGCCCAACCAGUGAUGUUGGAAUUUAAUCC [Default title] has apparent KD of K4 kissing-loop reporter of 125 nM

----------
Test system: K4 kissing-loop RNA reporter;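 also: bound reporter read as fluorescence of individual clusters on recovered sequencing chips by microscopy, with normalized cluster intensities fitted with a binding model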
Assay: apparent KD of K4 kissing-loop reporter; higher = weaker reporter binding
Conditions: Eterna round: R107; input ligand: none
In this section, each of the sequences is paired with its reported apparent KD of K4 kissing-loop reporter.
Just the number in nM, nothing appended.

Reference set (2 entries):
{"columns": ["Record Sequence", "Uom", "apparent KD of K4 kissing-loop reporter"],
 "data": [
  ["GAGAUAGAGGCGGCCGCCACUAGUGAUGUUAGUGAUGUUAGAUAGAGAAUAGAACAGAGAUAGGAUAGGACCGGGCCAGAUAGAG [Tryptophan B Exclusion; Euphoria Solution]", "nM", 57.4],
  ["AAAGAUCUUCUAGAAACUAGAAGAUCAAGAGAGGAUAUCCGAAUUCGGAGAAGGCUCGCUAAGUGAUGUUUGGACCCAAAGGGAA [AK3.1 SS FMN A]", "nM", 1180]
]}

Reported apparent KD of K4 kissing-loop reporter ( UCCGGUCGGUGAGCCAGUGAUGUUGGUCAGAAGGAUAUCUGGCAACAGAGAAGGUCUGCAUCAGCCUAGAUAUCCUGGCGACCGG ) = 79
